Origin of measurements: ChEMBL document CHEMBL3585325

Please provide measured activity at 10 min, 10 µM for the entries that follow.
# tested-system: CYP3A (Homo sapiens, UniProt P08684+P20815+P24462+Q9HB55)
# test-method-notes: Time dependent inhibition of CYP3A in human liver microsomes assessed as enzyme activity using midazolam as substrate at 10 uM incubated for 30 mins prior to substrate addition for 10 mins by LC-MS/MS analysis
# Assay type: ADME
# Design: scale not given: the % may be the effect or the level left
# experimental-parameters: probe midazolam, read-out: Activity
One number for each entry, in %.

# per-item lookup of activity at 10 min, 10 µM; items listed below
1. Cc1ncc(OC[C@@]2(c3ccccc3)C[C@H]2C(=O)Nc2ccccn2)c(C)n1
2. Cc1nn(C)cc1OCC1(c2ccccc2)CC1C(=O)Nc1ccc(C#N)cn1 (racemic)
3. Cc1ncc(OC[C@@]2(c3ccccc3)C[C@H]2C(=O)Nc2ccc(C#N)cn2)c(C)n1
4. COCc1nc(C)ncc1OC[C@@]1(c2ccccc2)C[C@H]1C(=O)Nc1ccc(C#N)cn1
5. CCn1cc(OCC2(c3ccccc3)CC2C(=O)Nc2ccc(C#N)cn2)c(C)n1 (racemic)
6. COc1ccc(OC[C@@]2(c3ccccc3)C[C@H]2C(=O)Nc2ccc(C#N)cn2)cc1OC
7. Cc1ncc(OC[C@@]2(c3ccccc3)C[C@H]2C(=O)Nc2ccc(Cl)cn2)c(C)n1
8. Cc1ncc(OC[C@@]2(c3ccccc3)C[C@H]2C(=O)Nc2cc(C)c(F)cn2)c(C)n1

99
85
96
92
84
49
88
89

* * *

# test-method-notes: Drug uptake in C57BL/6NCrlCrlj mouse CSF at 10 mg/kg, po administered as single dose measured after 1 hr by LC-MS/MS analysis
# Assay type: ADME, organism-based, Cerebrospinal fluid
# experimental-parameters: read-out: Drug uptake
property-measured: concentration at 1 h (nM)
Answers are plain numbers, in nM.

Quick check: concentration at 1 h of Cc1ncc(OC[C@@]2(c3cccc(F)c3)C[C@H]2C(=O)Nc2ccc(F)cn2)c(C)n1 [LEMBOREXANT] ?
32.8

* * *

# test-method-notes: AUC (0 to infinity) in C57BL/6NCrlCrlj mouse at 10 mg/kg, po by LC-MS/MS analysis
# Assay type: ADME, organism-based
# Design: dose 10 mg/kg, route oral, time infinity
# experimental-parameters: in vivo
property-measured: AUC(0-inf) (ng·h/mL)
Give bare numbers, in ng·h/mL.

# input molecule: Cc1ncc(OC[C@@]2(c3cccc(F)c3)C[C@H]2C(=O)Nc2ccc(F)cn2)c(C)n1 [LEMBOREXANT] ; wanted: its AUC(0-inf)
1910

* * *

Give IC50 for every item shown.
# tested-system: Cytochrome P450 2C9 (Homo sapiens, UniProt P11712)
# Sequence (P11712 whole entry): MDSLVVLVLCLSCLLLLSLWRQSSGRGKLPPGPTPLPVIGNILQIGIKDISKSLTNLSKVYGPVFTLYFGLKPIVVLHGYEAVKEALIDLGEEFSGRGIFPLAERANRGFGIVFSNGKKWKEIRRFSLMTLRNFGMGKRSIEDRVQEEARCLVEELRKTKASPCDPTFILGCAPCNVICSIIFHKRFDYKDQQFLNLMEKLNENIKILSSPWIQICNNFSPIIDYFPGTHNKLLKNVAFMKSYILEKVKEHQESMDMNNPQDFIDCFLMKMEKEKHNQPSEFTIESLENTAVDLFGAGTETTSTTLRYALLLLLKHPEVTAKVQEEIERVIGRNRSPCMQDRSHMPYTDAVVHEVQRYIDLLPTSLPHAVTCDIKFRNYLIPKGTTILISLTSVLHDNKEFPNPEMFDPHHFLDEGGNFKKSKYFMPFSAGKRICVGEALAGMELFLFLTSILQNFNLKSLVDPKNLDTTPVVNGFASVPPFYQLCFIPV

compound | result
Cc1ncc(OC[C@@]2(c3cccc(F)c3)C[C@H]2C(=O)Nc2ccc(F)cn2)c(C)n1 [LEMBOREXANT] | > 20 µM

Write down the reported IC50 of COc1ccc(OC[C@@]2(c3ccccc3)C[C@H]2C(=O)Nc2ccc(C#N)cn2)cc1OC , test system: Cytochrome P450 2C9 (Homo sapiens, UniProt P11712).
> 10 µM

* * *

Protein target, amino acids: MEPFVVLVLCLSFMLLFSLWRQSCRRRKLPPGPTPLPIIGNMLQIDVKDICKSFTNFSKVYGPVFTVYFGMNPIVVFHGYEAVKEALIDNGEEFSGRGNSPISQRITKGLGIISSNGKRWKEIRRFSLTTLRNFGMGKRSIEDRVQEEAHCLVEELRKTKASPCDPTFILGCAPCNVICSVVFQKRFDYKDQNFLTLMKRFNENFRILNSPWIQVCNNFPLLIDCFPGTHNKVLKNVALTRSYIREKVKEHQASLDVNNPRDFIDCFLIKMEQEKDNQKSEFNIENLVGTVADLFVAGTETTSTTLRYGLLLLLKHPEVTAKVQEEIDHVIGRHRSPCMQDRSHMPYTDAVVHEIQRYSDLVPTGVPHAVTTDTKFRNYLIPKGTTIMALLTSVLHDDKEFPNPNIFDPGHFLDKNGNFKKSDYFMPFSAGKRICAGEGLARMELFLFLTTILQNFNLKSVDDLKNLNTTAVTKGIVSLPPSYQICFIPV
property-measured: pIC50
One number for each entry, as −log10 of the molar value.

Look at this compound and give its reported pIC50. COc1ccc(OC[C@@]2(c3ccccc3)C[C@H]2C(=O)Nc2ccc(C#N)cn2)cc1OC
5.10

* * *

# test-method-notes: Cmax in C57BL/6NCrlCrlj mouse at 10 mg/kg, po by LC-MS/MS analysis
# Format: ADME, organism-based
# Set-up: dose 10 mg/kg, route oral
# experimental-parameters: in vivo
property-measured: Cmax
Enter the number, and then the unit.

Dear colleague, I am looking for the recorded Cmax of the following molecule: Cc1ncc(OC[C@@]2(c3cccc(F)c3)C[C@H]2C(=O)Nc2ccc(F)cn2)c(C)n1
488 ng/mL

* * *

Provide the reported solubility kinetic of each item.
# test-method-notes: Aqueous solubility of the compound in Dulbecco's phosphate buffered saline at pH 7.4 by DMSO solution precipitation method
# Assay type: physicochemical
Numbers only, in µM.

compound | solubility kinetic (µM)
Cc1ncc(OC[C@@]2(c3ccccc3)C[C@H]2C(=O)Nc2cc(C)c(F)cn2)c(C)n1 | 51
Cc1ncc(OC[C@@]2(c3ccccc3)C[C@H]2C(=O)Nc2ccc(C#N)cn2)c(C)n1 | 80
Cc1ncc(OC[C@@]2(c3ccccc3)C[C@H]2C(=O)Nc2ccc(F)cn2)c(C)n1 | 92
COc1ccc(OC[C@@]2(c3ccccc3)C[C@H]2C(=O)Nc2ccc(C#N)cn2)cc1OC | 15
COCc1nc(C)ncc1OC[C@@]1(c2ccccc2)C[C@H]1C(=O)Nc1ccc(C#N)cn1 | 93
Cc1cnc(OC[C@@]2(c3ccccc3)C[C@H]2C(=O)Nc2ccc(C#N)cn2)c(C)n1 | 47
Cc1nn(C)cc1OCC1(c2ccccc2)CC1C(=O)Nc1ccc(C#N)cn1 (racemic) | 85
CCn1cc(OCC2(c3ccccc3)CC2C(=O)Nc2ccc(C#N)cn2)c(C)n1 (racemic) | 78

Batch lookup, solubility kinetic per entry.
1. Cc1ncc(OC[C@@]2(c3cccc(F)c3)C[C@H]2C(=O)Nc2cc(C)c(F)cn2)c(C)n1
2. CCn1cc(OC[C@@]2(c3ccccc3)C[C@H]2C(=O)Nc2ccc(C#N)cn2)c(C)n1

46
64

Hello, I would appreciate it if you could give solubility kinetic for each entry below.
1. CCc1nc(C)ncc1OC[C@@]1(c2ccccc2)C[C@H]1C(=O)Nc1ccc(C#N)cn1
2. Cc1ccc(OCC2(c3ccccc3)CC2C(=O)Nc2ccc(C#N)cn2)c(C)n1 (racemic)

1: 44; 2: 22

* * *

# test-method-notes: Oral bioavailability in C57BL/6NCrlCrlj mouse at 10 mg/kg by LC-MS/MS analysis
# Assay type: ADME, organism-based
# experimental-parameters: in vivo
property-measured: bioavailability
Param answer (str): number followed by unit.

Look at this compound and give its reported bioavailability. Cc1ncc(OC[C@@]2(c3cccc(F)c3)C[C@H]2C(=O)Nc2ccc(F)cn2)c(C)n1
18.5%

* * *

# tested-system: Orexin/Hypocretin receptor type 1 (Homo sapiens, UniProt O43613)
# test-method-notes: Binding affinity to human OX1R by radioligand displacement binding assay
Answer each item with its documented pKi.
Give bare numbers, as −log10 of the molar value.

Worked cases, pKi given:
molecule | tested-system | pKi
CCn1cc(OCC2(c3ccccc3)CC2C(=O)Nc2ccc(C#N)cn2)c(C)n1 (racemic) | Orexin/Hypocretin receptor type 1 (Homo sapiens, UniProt O43613) | 6.41
Cc1ncc(OC[C@@]2(c3ccccc3F)C[C@H]2C(=O)Nc2ccc(F)cn2)c(C)n1 | Orexin/Hypocretin receptor type 1 (Homo sapiens, UniProt O43613) | 7.09
Cc1ncc(OC[C@@]2(c3ccccc3)C[C@H]2C(=O)Nc2ccc(C#N)cn2)c(C)n1 | Orexin/Hypocretin receptor type 1 (Homo sapiens, UniProt O43613) | 5.60
Cc1ncc(OC[C@@]2(c3ccccc3)C[C@H]2C(=O)Nc2ccncc2)c(C)n1 | Orexin/Hypocretin receptor type 1 (Homo sapiens, UniProt O43613) | 5.80
CCc1nc(C)ncc1OC[C@@]1(c2ccccc2)C[C@H]1C(=O)Nc1ccc(C#N)cn1 | Orexin/Hypocretin receptor type 1 (Homo sapiens, UniProt O43613) | 6.92

Below is a list of molecules. For each, state its recorded pKi.
1. COc1ccc(OC[C@@]2(c3ccccc3)C[C@H]2C(=O)Nc2ccc(C#N)cn2)cc1OC
2. Cc1ncc(OC[C@@]2(c3ccc(F)c(F)c3)C[C@H]2C(=O)Nc2ccc(F)cn2)c(C)n1
3. Cc1ncc(OC[C@@]2(c3ccccc3)C[C@H]2C(=O)Nc2cccc(F)n2)c(C)n1

1: 6.97; 2: 7.85; 3: 6.86

* * *

# tested-system: Orexin/Hypocretin receptor type 1 (Homo sapiens)
# Sequence (O43613 whole entry): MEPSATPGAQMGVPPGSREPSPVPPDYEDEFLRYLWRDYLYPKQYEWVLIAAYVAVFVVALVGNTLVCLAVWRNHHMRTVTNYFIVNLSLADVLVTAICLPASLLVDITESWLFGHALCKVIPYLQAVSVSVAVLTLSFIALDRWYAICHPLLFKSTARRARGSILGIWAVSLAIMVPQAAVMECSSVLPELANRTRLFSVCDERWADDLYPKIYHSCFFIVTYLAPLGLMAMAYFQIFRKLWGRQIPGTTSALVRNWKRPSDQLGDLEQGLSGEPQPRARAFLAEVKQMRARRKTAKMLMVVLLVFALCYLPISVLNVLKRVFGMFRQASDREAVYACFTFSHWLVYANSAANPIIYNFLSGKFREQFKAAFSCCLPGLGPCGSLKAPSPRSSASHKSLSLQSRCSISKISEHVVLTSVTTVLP
# test-method-notes: Binding affinity to human OX1R by radioligand displacement binding assay
property-measured: Ki (nM)
Give bare numbers, in nM.

Below, each entry is followed by its recorded Ki result.
compound | tested-system | Ki (nM)
Cc1ccnc(NC(=O)[C@@H]2C[C@@]2(COc2cnc(C)nc2C)c2ccccc2)c1 | Orexin/Hypocretin receptor type 1 (Homo sapiens) | 224
Cc1ncc(OC[C@@]2(c3ccccc3)C[C@H]2C(=O)Nc2ccc(F)cn2)c(C)n1 | Orexin/Hypocretin receptor type 1 (Homo sapiens) | 137
CCn1cc(OC[C@@]2(c3ccccc3)C[C@H]2C(=O)Nc2ccc(C#N)cn2)c(C)n1 | Orexin/Hypocretin receptor type 1 (Homo sapiens) | 171
Cc1ncc(OC[C@@]2(c3ccc(F)cc3)C[C@H]2C(=O)Nc2ccc(F)cn2)c(C)n1 | Orexin/Hypocretin receptor type 1 (Homo sapiens) | 39
Cc1ncc(OC[C@@]2(c3ccccc3)C[C@H]2C(=O)Nc2cc(C)c(F)cn2)c(C)n1 | Orexin/Hypocretin receptor type 1 (Homo sapiens) | 6
Cc1ccc(OCC2(c3ccccc3)CC2C(=O)Nc2ccc(C#N)cn2)c(C)n1 (racemic) | Orexin/Hypocretin receptor type 1 (Homo sapiens) | 938
Cc1ncc(OC[C@@]2(c3cccc(F)c3)C[C@H]2C(=O)Nc2ccc(F)cn2)c(C)n1 | Orexin/Hypocretin receptor type 1 (Homo sapiens) | 6
Cc1ncc(OC[C@@]2(c3ccccc3)C[C@H]2C(=O)Nc2ccc(Cl)cn2)c(C)n1 | Orexin/Hypocretin receptor type 1 (Homo sapiens) | 39

Batch request: Ki for each of the following compounds.
1. Cc1ncc(OC[C@@]2(c3ccccc3)C[C@H]2C(=O)Nc2ccccn2)c(C)n1
2. Cc1ccc(NC(=O)[C@@H]2C[C@@]2(COc2cnc(C)nc2C)c2ccccc2)nc1
3. COc1cc(NC(=O)[C@@H]2C[C@@]2(COc2cnc(C)nc2C)c2ccccc2)ncc1F
4. Cc1ncc(OC[C@@]2(c3cc(F)cc(F)c3)C[C@H]2C(=O)Nc2ccc(F)cn2)c(C)n1
5. Cc1ncc(OC[C@@]2(c3cccc(F)c3)C[C@H]2C(=O)Nc2cc(C)c(F)cn2)c(C)n1
6. Cc1cnc(OC[C@@]2(c3ccccc3)C[C@H]2C(=O)Nc2ccc(C#N)cn2)c(C)n1
7. Cc1ncc(OC[C@@]2(c3ccccc3)C[C@H]2C(=O)Nc2cccnc2)c(C)n1
8. COCc1nc(C)ncc1OC[C@@]1(c2ccccc2)C[C@H]1C(=O)Nc1ccc(C#N)cn1

1020
124
3
7
2
73
391
43
